Target: UniProt Q96RI1
Sequence (Q96RI1 whole entry, the tested form may be a part): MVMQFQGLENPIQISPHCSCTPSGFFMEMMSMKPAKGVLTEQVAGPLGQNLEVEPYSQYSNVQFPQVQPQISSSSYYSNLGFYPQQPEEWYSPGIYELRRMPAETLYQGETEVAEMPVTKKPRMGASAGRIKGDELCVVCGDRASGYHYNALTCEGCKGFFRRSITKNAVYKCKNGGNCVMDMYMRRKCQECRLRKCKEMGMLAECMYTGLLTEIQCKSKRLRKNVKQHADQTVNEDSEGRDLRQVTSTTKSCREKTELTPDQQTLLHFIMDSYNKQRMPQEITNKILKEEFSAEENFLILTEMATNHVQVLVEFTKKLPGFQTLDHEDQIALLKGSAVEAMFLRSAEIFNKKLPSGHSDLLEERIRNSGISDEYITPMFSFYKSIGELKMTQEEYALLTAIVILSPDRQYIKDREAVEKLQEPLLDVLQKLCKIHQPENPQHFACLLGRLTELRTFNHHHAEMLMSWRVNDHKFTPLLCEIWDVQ
Assay: Human FXR (NR1H4) Assay (Gal4 promoter driven luciferase reporter, Indigo Bioscience kit);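 note: 100% equals the efficacy of CDCA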; for Efficacy (%): efficacy normalized to CDCA set as 100%
Format: cell-based
Settings: read-out: Efficacy (%)
Hi all, reminder that labels come from Emax, split as one = under 200%, two = from 200% up to 300%, three = 300% and over

Req: Bin this entry: CC[C@H]1[C@@H](O)[C@@H]2[C@H](CC[C@]3(C)[C@@H]([C@H](C)CCOC(=O)N4CCC[C@H](CO)C4)CC[C@@H]23)[C@@]2(C)CC[C@@H](O)C[C@@H]12 [Example 203]
Resp: three

Req: Next: CC[C@H]1[C@@H](O)[C@@H]2[C@H](CC[C@]3(C)[C@@H]([C@H](C)CCOC(=O)NS(=O)(=O)c4ccc(C(C)(C)CO)cc4)CC[C@@H]23)[C@@]2(C)CC[C@@H](O)C[C@@H]12 [Example 70]
Resp: three

Req: Continue with CC[C@H]1[C@@H](O)[C@@H]2[C@H](CC[C@]3(C)[C@@H]([C@H](C)COC(=O)NS(=O)(=O)c4ccc(-n5cccn5)nc4)CC[C@@H]23)[C@@]2(C)CC[C@@H](O)C[C@@H]12 [Example 16]
Resp: one

Req: Again, but for CC[C@H]1[C@@H](O)[C@@H]2[C@H](CC[C@]3(C)[C@@H]([C@H](C)CCOC(=O)NS(=O)(=O)C4(C)CC4)CC[C@@H]23)[C@@]2(C)CC[C@@H](O)C[C@@H]12 [Example 49]
Resp: two

Req: Another: CC[C@H]1[C@@H](O)[C@@H]2[C@H](CC[C@]3(C)[C@@H]([C@H](C)CCOC(=O)NS(=O)(=O)c4ccccc4C(F)(F)F)CC[C@@H]23)[C@@]2(C)CC[C@@H](O)C[C@@H]12 [Example 80]
Resp: three

Req: How about CC[C@H]1[C@@H](O)[C@@H]2[C@H](CC[C@]3(C)[C@@H]([C@H](C)CCOC(=O)NS(=O)(=O)c4ccccc4OC)CC[C@@H]23)[C@@]2(C)CC[C@@H](O)C[C@@H]12 [Example 84] ?
Resp: two

Req: Another compound to check: CC[C@H]1[C@@H](O)[C@@H]2[C@H](CC[C@]3(C)[C@@H]([C@H](C)CCOC(=O)N4CC[C@@H](CO)C4)CC[C@@H]23)[C@@]2(C)CC[C@@H](O)C[C@@H]12 [Example 212]
Resp: three

Req: Another compound to check: CC[C@H]1[C@@H](O)[C@@H]2[C@H](CC[C@]3(C)[C@@H]([C@H](C)CCOC(=O)NS(=O)(=O)C(C)C)CC[C@@H]23)[C@@]2(C)CC[C@@H](O)C[C@@H]12 [Example 75]
Resp: three

Req: How about CC[C@H]1[C@@H](O)[C@@H]2[C@H](CC[C@]3(C)[C@@H]([C@H](C)CCCOC(=O)NS(=O)(=O)C4CCCCC4)CC[C@@H]23)[C@@]2(C)CC[C@@H](O)C[C@@H]12 [Example 2] ?
Resp: two

Req: Another compound to check: CC[C@H]1[C@@H](O)[C@@H]2[C@H](CC[C@]3(C)[C@@H]([C@H](C)CCOC(=O)NC(C)(C)C)CC[C@@H]23)[C@@]2(C)CC[C@@H](O)C[C@@H]12 [Example 192]
Resp: one

Req: What about this compound? CC[C@H]1[C@@H](O)[C@@H]2[C@H](CC[C@]3(C)[C@@H]([C@H](C)CCOC(=O)NS(=O)(=O)CCOC)CC[C@@H]23)[C@@]2(C)CC[C@@H](O)C[C@@H]12 [Example 83]
Resp: two

Req: Moving on to CC[C@H]1[C@@H](O)[C@@H]2[C@H](CC[C@]3(C)[C@@H]([C@H](C)COC(=O)NS(=O)(=O)c4ccc(-n5cncn5)nc4)CC[C@@H]23)[C@@]2(C)CC[C@@H](O)C[C@@H]12 [Example 44-l]
Resp: one

Req: CC[C@H]1[C@@H](O)[C@@H]2[C@H](CC[C@]3(C)[C@@H]([C@H](C)COC(=O)NS(=O)(=O)c4ccc(N5CCC(F)(F)CC5)cc4)CC[C@@H]23)[C@@]2(C)CC[C@@H](O)C[C@@H]12 [Example 21] , same question.
Resp: two

Req: Query CC[C@H]1[C@@H](O)[C@@H]2[C@H](CC[C@]3(C)[C@@H]([C@H](C)CCOC(=O)NS(=O)(=O)c4ccncc4)CC[C@@H]23)[C@@]2(C)CC[C@@H](O)C[C@@H]12 [Example 73] next
Resp: three

Req: Same question, CC[C@H]1[C@@H](O)[C@@H]2[C@H](CC[C@]3(C)[C@@H]([C@H](C)CCOC(=O)NS(=O)(=O)c4ccc(OC(F)(F)F)c(F)c4)CC[C@@H]23)[C@@]2(C)CC[C@@H](O)C[C@@H]12 [Example 104-k] this time
Resp: one

All figures here come from patent US10457703B2.
